System: MDA-MB-231
Assay: Antiproliferative activity against human MDA-MB-231 cells assessed as growth inhibition by MTT assay
Assay type: functional
Metric name: GI50 (µM)
Answers are plain numbers, in µM.

Can you look up the measured GI50 of Nc1c(C(=O)Nc2ccc(F)cc2)sc2nc(-c3ccc(OCC(=O)NCCCCCCCCNC(=O)COc4cccc5c4C(=O)N(C4CCC(=O)NC4=O)C5=O)cc3)cc(C(F)(F)F)c12 (stereo not given) for me?
38.6

Consider the molecule Nc1c(C(=O)Nc2ccc(F)cc2)sc2nc(-c3ccc(OCC(=O)NCCOCCOCCNC(=O)COc4cccc5c4C(=O)N(C4CCC(=O)NC4=O)C5=O)cc3)cc(C(F)(F)F)c12 (stereo not given) and give its measured GI50.
19.5

May I ask what GI50 has been recorded for Nc1c(C(=O)Nc2ccc(F)cc2)sc2nc(-c3ccc(OCC(=O)NCCCNC(=O)COc4cccc5c4C(=O)N(C4CCC(=O)NC4=O)C5=O)cc3)cc(C(F)(F)F)c12 (stereo not given) ?
17.4

Next:
Quick check: GI50 of Nc1c(C(=O)Nc2ccc(F)cc2)sc2nc(-c3cccs3)cc(C(F)(F)F)c12 ?
25.6
